- methodNotes: Plasma concentration in mouse model of complete Freund's adjuvant-induced inflammatory pain at 60 mg/kg, po measured after 90 mins post dose
- Type: ADME, organism-based
measureName: concentration at 1.5 h (nM)
Give the number; nM is assumed, so skip it.

Prompt: # concentration at 1.5 h lookup, item O=S(=O)(Nc1nccs1)c1cc(Cl)c(NC[C@H]2CCCOC2)cc1F
Response: 2560

----------
- methodNotes: Volume of distribution at steady state in mouse at 2 mg/kg, iv
- Assay type: ADME, organism-based
- experimentalContext: in vivo, read-out: Vdss
measureName: Vd (L/kg)
Give the number; L/kg is assumed, so skip it.

Prompt: # Vd lookup, item O=S(=O)(Nc1nccs1)c1cc(Cl)c(NC[C@H]2CCCOC2)cc1F
Response: 0.6

----------
- methodNotes: Ratio of drug level in brain to plasma of mouse at 100 mg/kg, po measured after 90 mins post dose
- Type: ADME, organism-based
- experimentalContext: read-out: BPR
measureName: Kp at 1.5 h
Give only the figure.

Prompt: # Kp at 1.5 h lookup, item O=S(=O)(Nc1nccs1)c1cc(Cl)c(NC[C@H]2CCCOC2)cc1F
Response: 0.012

----------
- methodNotes: Drug concentration in mouse dorsal root ganglion at 30 mg/kg, po measured after 30 mins post dose
- Format: ADME, organism-based
- experimentalContext: read-out: Drug uptake
measureName: concentration at 0.5 h (nM)
Give the number; nM is assumed, so skip it.

Prompt: # concentration at 0.5 h lookup, item O=S(=O)(Nc1nccs1)c1cc(Cl)c(NC[C@H]2CCCOC2)cc1F
Response: 1100

----------
- methodNotes: Plasma concentration in mouse model of complete Freund's adjuvant-induced inflammatory pain at 10 mg/kg, po measured after 90 mins post dose
- Assay type: ADME, organism-based
measureName: concentration at 1.5 h (nM)
Give the number; nM is assumed, so skip it.

Prompt: # concentration at 1.5 h lookup, item O=S(=O)(Nc1nccs1)c1cc(Cl)c(NC[C@H]2CCCOC2)cc1F
Response: 750

----------
- methodNotes: Plasma concentration in mouse at 100 mg/kg, po measured after 30 mins post dose
- Format: ADME, organism-based
measureName: concentration at 0.5 h (µM)
Give the number; µM is assumed, so skip it.

Prompt: # concentration at 0.5 h lookup, item O=S(=O)(Nc1nccs1)c1cc(Cl)c(NC[C@H]2CCCOC2)cc1F
Response: 7.34

----------
- methodNotes: Clearance in mouse at 2 mg/kg, iv
- Format: ADME, organism-based
- experimentalContext: in vivo
measureName: clearance (mL/min/kg)
Give the number; mL/min/kg is assumed, so skip it.

Prompt: # clearance lookup, item O=S(=O)(Nc1nccs1)c1cc(Cl)c(NC[C@H]2CCCOC2)cc1F
Response: 13

----------
- methodNotes: Plasma concentration in mouse at 100 mg/kg, po measured after 90 mins post dose
- Assay type: ADME, organism-based
measureName: concentration at 1.5 h (µM)
Give the number; µM is assumed, so skip it.

Prompt: # concentration at 1.5 h lookup, item O=S(=O)(Nc1nccs1)c1cc(Cl)c(NC[C@H]2CCCOC2)cc1F
Response: 3.67

----------
- methodNotes: Drug concentration in trigeminal ganglion of mouse model of formalin-induced persistent pain at 30 mg/kg, po measured after 90 mins post dose
- Format: ADME, organism-based
- experimentalContext: read-out: Drug uptake
measureName: concentration at 1.5 h (µM)
Give the number; µM is assumed, so skip it.

Prompt: # concentration at 1.5 h lookup, item O=S(=O)(Nc1nccs1)c1cc(Cl)c(NC[C@H]2CCCOC2)cc1F
Response: 5
